Molecular target: CD3 on CD3-positive Jurkat cells (human)
Test: flow cytometry on Jurkat cells, MFI titration fitted in GraphPad Prism
readout.kind: Kd (nM)
# output: bare number, implied unit nM

Query string: Form entry - test system: CD3 on CD3-positive Jurkat cells (human); read-out: Kd; substance: EGFR×CD3 MSBODY M1001 (monovalent unit from Erbitux, single-chain unit anti-CD3 L2K ScFv-Fc) (bispecific antibody)
Result string: 8.73

Query string: Now give it for EGFR×CD3 MSBODY M1003 (monovalent unit from Vectibix, single-chain unit anti-CD3 L2K ScFv-Fc) (bispecific antibody) too.
Result string: 14.4

* * *

Target: EGFR on EGFR-positive cells (HT29; HCT116; MDA-MB-453) (human)
Assay: flow cytometry on HT29 cells, MFI titration fitted in GraphPad Prism
Field: pKd. Provide a value for each of the substances that follow.
The meaning of pKd here: minus log10 of the concentration in molar units.

Query string: Query (substance): EGFR×CD3 MSBODY M1001 (monovalent unit from Erbitux, single-chain unit anti-CD3 L2K ScFv-Fc) (bispecific antibody) ; field requested: pKd
Result string: 9.19

Query string: Now give it for EGFR×CD3 MSBODY M1003 (monovalent unit from Vectibix, single-chain unit anti-CD3 L2K ScFv-Fc) (bispecific antibody) too.
Result string: 9.19
